Ref: PubChem BioAssay (NCATS)

assay: Quantitative High-Throughput drug screen in 47 multiple myeloma cell lines against the NCATS MIPE library collection: MOLP8_DSMZ cell viability assay (AID 1918977); conditions: MOLP8 myeloma viability, CellTiter-Glo ATP luminescence, 48 h; series mostly up to 45.8 µM; further: nearly all actives have a fitted effect of over 45% in size
Inconclusive results are not listed. The source made the active and inactive calls. The call rests on the fitted dose curve; in most records, active means well fitted cell-killing curve with a large enough effect; inconclusive means small, poorly fitted or top-dose-only effect, or effect the other way; inactive means no such curve, though single readings can be large or run the other way.
Labels: active, inactive

{"columns": ["molecule", "category_label"],
 "data": [
  ["CC1(C)O[C@H]2CC(=O)OC[C@]23[C@H]2CC[C@@]4(C)[C@H](c5ccoc5)OC(=O)[C@H]5O[C@]54[C@]2(C)C(=O)C[C@@H]13", "inactive"],
  ["NCCCCCC(=O)O", "inactive"],
  ["CN1CCC(=C2c3ccccc3CC(=O)c3sccc32)CC1", "inactive"],
  ["OCCN(CCO)c1nc(N2CCCCC2)c2nc(N(CCO)CCO)nc(N3CCCCC3)c2n1", "active"],
  ["CC(C(=O)O)c1cccc(C(=O)c2ccccc2)c1 (stereo not drawn)", "inactive"],
  ["COc1cc2nc(N3CCN(C(=O)c4ccco4)CC3)nc(N)c2cc1OC", "active"],
  ["CC(C)NCC(O)c1ccc(O)c(O)c1 (stereo not drawn)", "active"],
  ["Cc1cn([C@H]2C[C@H](N=[N+]=[N-])[C@@H](CO)O2)c(=O)[nH]c1=O", "inactive"],
  ["CCCCc1oc2ccccc2c1C(=O)c1cc(I)c(OCCN(CC)CC)c(I)c1", "active"],
  ["COc1ccc2c(c1)c(CC(=O)O)c(C)n2C(=O)c1ccc(Cl)cc1", "inactive"],
  ["CC[C@@]1(O)C(=O)OCc2c1cc1n(c2=O)Cc2cc3c(CN(C)C)c(O)ccc3nc2-1", "active"],
  ["Cc1cnc(C(=O)NCCc2ccc(S(=O)(=O)NC(=O)NC3CCCCC3)cc2)cn1", "inactive"],
  ["CS(=O)(=O)CCNCc1ccc(-c2ccc3ncnc(Nc4ccc(OCc5cccc(F)c5)c(Cl)c4)c3c2)o1", "active"],
  ["CN1C2CCC1CC(OC(=O)C(CO)c1ccccc1)C2 (stereo not drawn)", "inactive"],
  ["Cc1cc(C(C)(C)C)c(O)c(C)c1CC1=NCCN1", "inactive"],
  ["O=c1c(O)c(-c2ccc(O)c(O)c2)oc2cc(O)cc(O)c12", "inactive"],
  ["CCOC(=O)C(C)(C)Oc1ccc(Cl)cc1", "inactive"],
  ["CC(=O)OCC(CCn1cnc2cnc(N)nc21)COC(C)=O", "inactive"],
  ["NC(=O)NO", "active"],
  ["CCN1CCCC1CNC(=O)c1cc(S(=O)(=O)CC)c(N)cc1OC (stereo not drawn)", "inactive"],
  ["NS(=O)(=O)c1cc2c(cc1Cl)NCNS2(=O)=O", "inactive"],
  ["C[C@@H]1CC(=O)NN=C1c1ccc(NN=C(C#N)C#N)cc1", "active"],
  ["CC1COc2c(N3CCN(C)CC3)c(F)cc3c(=O)c(C(=O)O)cn1c23 (stereo not drawn)", "inactive"]
]}
